Tested on: DBTRG-05MG (Glioblastoma)
Experiment: combination Emax (second highest fraction inhibited in the dose matrix, 72 h); higher = more inhibition; extreme values may be limits of the assay
Categorize each record by its combination Emax using LOW (below 0.2), MEDIUM (0.2 to below 0.3), HIGH (0.3 or more)

Example results:
| COMPOUND | ASSIGNED CATEGORY |
| --- | --- |
| CN(C)CCCOc1ccc(-c2ccc3ncc4c(c3c2)n(C2CCOCC2)c(=O)n4C)cn1 [AZD0156] + O=C(c1cc(Cc2n[nH]c(=O)c3ccccc23)ccc1F)N1CCN(C(=O)C2CC2)CC1 [Olaparib] (first compound max 3 µM, partner max 3 µM) | LOW |
| CN(CCO)CC[C@H](CSc1ccccc1)Nc1ccc(S(=O)(=O)NC(=O)c2ccc(N3CCC([C@@H](O)c4ccccc4-c4ccc(Cl)cc4)CC3)cc2)cc1S(=O)(=O)C(F)(F)F [AZD4320] + C[C@@H]1COCCN1C2=NC(=NC(=C2)C3(CC3)[S@](=N)(=O)C)C4=C5C=CNC5=NC=C4 [AZD6738] (first compound max 1 µM, 7x7, partner max 10 µM) | HIGH |
| Cc1cc2ncnn2cc1Nc1ncc2c(n1)n(C1CCOCC1)c(=O)n2C [AZD7648] + C=CCn1c(=O)c2cnc(Nc3ccc(N4CCN(C)CC4)cc3)nc2n1-c1cccc(C(C)(C)O)n1 [AZD1775] (first compound max 10 µM, partner max 1 µM) | HIGH |
| CN(CCO)CC[C@H](CSc1ccccc1)Nc1ccc(S(=O)(=O)NC(=O)c2ccc(N3CCC([C@@H](O)c4ccccc4-c4ccc(Cl)cc4)CC3)cc2)cc1S(=O)(=O)C(F)(F)F [AZD4320] + Cn1cnc2c(F)c(Nc3ccc(Br)cc3Cl)c(C(=O)NOCCO)cc21 [Selumetinib] (first compound max 1 µM, 7x7, partner max 3 µM) | HIGH |
| CC1(C)CCC(CN2CCN(c3ccc(C(=O)NS(=O)(=O)c4ccc(NCC5CCOCC5)c([N+](=O)[O-])c4)c(Oc4cnc5[nH]ccc5c4)c3)CC2)=C(c2ccc(Cl)cc2)C1 [Venetoclax] + C[C@@H](Nc1cc(F)cc(F)c1)c1cc(C(=O)N(C)C)cc2c(=O)cc(N3CCOCC3)oc12 [AZD8186] (first compound max 1 µM, 7x7, partner max 3 µM) | LOW |

Quick check: band for CN(CCO)CC[C@H](CSc1ccccc1)Nc1ccc(S(=O)(=O)NC(=O)c2ccc(N3CCC([C@@H](O)c4ccccc4-c4ccc(Cl)cc4)CC3)cc2)cc1S(=O)(=O)C(F)(F)F [AZD4320] + C1CN(CCC1(C(=O)N[C@@H](CCO)C2=CC=C(C=C2)Cl)N)C3=NC=NC4=C3C=CN4 [Capivasertib] (first compound max 1 µM, 7x7, partner max 3 µM)
HIGH

Quick check: band for CC(=O)c1c(C)c2cnc(Nc3ccc(N4CCNCC4)cn3)nc2n(C2CCCC2)c1=O [Palbociclib] + Cc1c2c(nn1C)CSCc1cc(n(C)n1)CSc1cc(c3ccccc3c1)OCCCc1c(C(=O)O)n(C)c3c-2c(Cl)ccc13 [AZD5991] (first compound max 10 µM, 7x7, partner max 1 µM)
LOW

Quick check: band for Cc1c2c(nn1C)CSCc1cc(n(C)n1)CSc1cc(c3ccccc3c1)OCCCc1c(C(=O)O)n(C)c3c-2c(Cl)ccc13 [AZD5991] + CN(C)CCCOc1ccc(-c2ccc3ncc4c(c3c2)n(C2CCOCC2)c(=O)n4C)cn1 [AZD0156] (first compound max 1 µM, 7x7, partner max 1 µM)
MEDIUM

Quick check: band for Cc1c2c(nn1C)CSCc1cc(n(C)n1)CSc1cc(c3ccccc3c1)OCCCc1c(C(=O)O)n(C)c3c-2c(Cl)ccc13 [AZD5991] + C=CCn1c(=O)c2cnc(Nc3ccc(N4CCN(C)CC4)cc3)nc2n1-c1cccc(C(C)(C)O)n1 [AZD1775] (first compound max 1 µM, partner max 1 µM)
MEDIUM

Quick check: band for COc1cc2ncnc(Nc3ccc(F)c(Cl)c3)c2cc1OCCCN1CCOCC1 [Gefitinib] + CC(C)n1c(=O)n(C)c2cnc3cc(F)c(-c4ccc(OCCCN5CCCCC5)nc4)cc3c21 [AZD1390] (first compound max 10 µM, 7x7, partner max 0.3 µM)
LOW

Quick check: band for CCN(CCO)CCCOc1ccc2c(Nc3cc(CC(=O)Nc4cccc(F)c4)[nH]n3)ncnc2c1 [AZD2811] + O=C(c1cc(Cc2n[nH]c(=O)c3ccccc23)ccc1F)N1CCN(C(=O)C2CC2)CC1 [Olaparib] (first compound max 1 µM, 7x7, partner max 10 µM)
MEDIUM

Quick check: band for COc1nnc2ccc(N3CCC(c4ccc(OCCN5CCN(C)C(=O)[C@H]5C)cc4)CC3)nn12 [AZD5153] + CC1(C)CCC(CN2CCN(c3ccc(C(=O)NS(=O)(=O)c4ccc(NCC5CCOCC5)c([N+](=O)[O-])c4)c(Oc4cnc5[nH]ccc5c4)c3)CC2)=C(c2ccc(Cl)cc2)C1 [Venetoclax] (first compound max 1 µM, 7x7, partner max 1 µM)
MEDIUM
